System: MCF-7 breast cancer cell line
Assay overview: MTT cytotoxicity assay
Format: cell-based
Recorded conditions: Homo sapiens, MCF7, 72 h, read-out: % Inhibition (10 µM)
Below is a list of entries, each paired with its recorded inhibition at 10 µM value.
Kindly provide the numeric value in % only, without the unit symbol.

Study these solved cases before continuing.
{"Compound": "COc1cccc(-c2cc(-c3ccc(S(C)(=O)=O)cc3)nc3nc4ccccc4n23)c1 [Compound 5f]", "inhibition at 10 µM / %": 75.4}
{"Compound": "COc1ccccc1-c1cc(-c2ccc(S(C)(=O)=O)cc2)nc2nc3ccccc3n12 [Compound 5e]", "inhibition at 10 µM / %": 74.3}
{"Compound": "Cc1ccc(-c2cc(C(F)(F)F)nn2-c2ccc(S(N)(=O)=O)cc2)cc1 [Celecoxib, reference compound]", "inhibition at 10 µM / %": 75.8}
{"Compound": "Cc1cccc(-c2cc(-c3ccc(S(C)(=O)=O)cc3)nc3nc4ccccc4n23)c1 [Compound 5c]", "inhibition at 10 µM / %": 76}
{"Compound": "COc1ccc(-c2cc(-c3ccc(S(C)(=O)=O)cc3)nc3nc4ccccc4n23)cc1OC [Compound 5h]", "inhibition at 10 µM / %": 79.3}
{"Compound": "CS(=O)(=O)c1ccc(-c2cc(-c3ccc(Cl)cc3)n3c(n2)nc2ccccc23)cc1 [Compound 5o]", "inhibition at 10 µM / %": 72.3}
{"Compound": "COc1cc(-c2cc(-c3ccc(S(C)(=O)=O)cc3)nc3nc4ccccc4n23)cc(OC)c1OC [Compound 5i]", "inhibition at 10 µM / %": 77.9}
{"Compound": "Cc1ccccc1-c1cc(-c2ccc(S(C)(=O)=O)cc2)nc2nc3ccccc3n12 [Compound 5b]", "inhibition at 10 µM / %": 76.9}

Tell me reported inhibition at 10 µM for CS(=O)(=O)c1ccc(-c2cc(-c3ccccc3Cl)n3c(n2)nc2ccccc23)cc1 [Compound 5m] , tested with MCF-7 breast cancer cell line.
51.3

Tell me reported inhibition at 10 µM for Cc1ccc(-c2cc(-c3ccc(S(C)(=O)=O)cc3)nc3nc4ccccc4n23)cc1 [Compound 5d] , tested with MCF-7 breast cancer cell line.
78.2

Tell me reported inhibition at 10 µM for CS(=O)(=O)c1ccc(-c2cc(-c3ccccc3)n3c(n2)nc2ccccc23)cc1 [Compound 5a] , tested with MCF-7 breast cancer cell line.
53.3

Tell me reported inhibition at 10 µM for CS(=O)(=O)c1ccc(-c2cc(-c3cccc(Cl)c3)n3c(n2)nc2ccccc23)cc1 [Compound 5n] , tested with MCF-7 breast cancer cell line.
72.7

Tell me reported inhibition at 10 µM for COc1ccc(-c2cc(-c3ccc(S(C)(=O)=O)cc3)nc3nc4ccccc4n23)cc1 [Compound 5g] , tested with MCF-7 breast cancer cell line.
79.6
